Taken from patent EP4803525A1.

Target: PDE4A1A (Homo sapiens)
Construct: purchased BPS bioscience
Sequence (P27815 1-647 isoform P27815-4): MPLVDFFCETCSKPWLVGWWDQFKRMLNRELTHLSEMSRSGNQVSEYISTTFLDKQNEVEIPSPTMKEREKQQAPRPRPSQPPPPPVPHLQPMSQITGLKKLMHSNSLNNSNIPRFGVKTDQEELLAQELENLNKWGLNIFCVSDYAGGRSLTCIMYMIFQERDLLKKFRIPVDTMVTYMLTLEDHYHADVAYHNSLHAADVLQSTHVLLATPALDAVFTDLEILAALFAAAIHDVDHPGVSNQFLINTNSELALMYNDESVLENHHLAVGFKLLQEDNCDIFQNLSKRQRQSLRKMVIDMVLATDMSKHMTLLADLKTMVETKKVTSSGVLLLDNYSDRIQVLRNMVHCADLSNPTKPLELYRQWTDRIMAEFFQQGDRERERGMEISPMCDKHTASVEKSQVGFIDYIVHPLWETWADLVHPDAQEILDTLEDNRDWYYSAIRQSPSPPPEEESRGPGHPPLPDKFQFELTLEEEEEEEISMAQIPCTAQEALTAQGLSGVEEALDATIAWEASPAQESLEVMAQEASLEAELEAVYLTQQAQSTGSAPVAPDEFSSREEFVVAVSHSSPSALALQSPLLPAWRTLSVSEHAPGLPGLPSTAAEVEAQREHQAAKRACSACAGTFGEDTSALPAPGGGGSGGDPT
Assay: Selectivity for PDE4 enzyme isotypes, same detection method as PDE4B
Format: biochemical
observable: IC50 (nM)
Express your answer in nM, writing the number without its unit.

Item [O-][S+]1CCc2nc(N3CCC(c4ncc(Cl)cn4)CC3)nc(NC3(CO)CCC3)c21 (stereo not shown) has what recorded IC50?
112

----------
Target: PDE4D3 (Homo sapiens, UniProt Q08499)
Construct: purchased BPS bioscience
Sequence (Q08499 1-673 isoform Q08499-2): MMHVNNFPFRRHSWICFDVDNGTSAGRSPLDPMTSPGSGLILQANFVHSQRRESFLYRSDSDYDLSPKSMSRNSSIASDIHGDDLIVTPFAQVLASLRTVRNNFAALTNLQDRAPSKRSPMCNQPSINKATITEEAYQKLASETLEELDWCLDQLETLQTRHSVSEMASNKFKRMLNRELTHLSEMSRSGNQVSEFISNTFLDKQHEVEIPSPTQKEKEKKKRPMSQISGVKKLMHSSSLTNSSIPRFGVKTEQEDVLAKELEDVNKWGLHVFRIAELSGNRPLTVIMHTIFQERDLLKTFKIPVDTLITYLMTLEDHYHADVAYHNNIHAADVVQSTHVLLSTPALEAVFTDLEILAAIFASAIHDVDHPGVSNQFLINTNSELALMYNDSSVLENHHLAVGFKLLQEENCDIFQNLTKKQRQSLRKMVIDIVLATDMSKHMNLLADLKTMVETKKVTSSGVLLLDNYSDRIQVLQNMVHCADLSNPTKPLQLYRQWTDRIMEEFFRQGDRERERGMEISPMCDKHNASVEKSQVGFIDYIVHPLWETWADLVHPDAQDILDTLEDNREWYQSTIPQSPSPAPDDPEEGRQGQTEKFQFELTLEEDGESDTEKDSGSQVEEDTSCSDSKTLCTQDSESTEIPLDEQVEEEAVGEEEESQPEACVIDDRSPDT
Assay: Selectivity for PDE4 enzyme isotypes, same detection method as PDE4B
Type: biochemical
observable: IC50 (nM)
Express your answer in nM, writing the number without its unit.

Item [O-][S+]1CCc2nc(N3CCC(c4ncc(Cl)cn4)CC3)nc(NC3(CO)CCC3)c21 (stereo not shown) has what recorded IC50?
65.8
